Attribution: patent US7378375B1

Assign melting point to each entry below.

CC(=O)OCCOCc1nc(C(F)(F)F)ccc1C(=O)C1=C(O)C2CCC(C2)C1=O (stereo not drawn) | 90 to 93 °C
CCOCc1nc(C(F)(F)F)ccc1C(=O)c1cnn(C)c1O | 32 to 33 °C
COCc1nc(C(F)(F)F)ccc1C(=O)c1cnn(C)c1O | 32 to 34 °C
O=C(C1=C(O)C2CCC(C2)C1=O)c1ccc(C(F)(F)F)nc1COCC1CO1 (stereo not drawn) | 54 to 56 °C
CC(=O)OCc1nc(C(F)(F)F)ccc1C(=O)C1=C(O)C2CCC(C2)C1=O.[K+] (stereo not drawn) | 145 to 150 °C
CC(C)(C)C(=O)OC1=C(C(=O)c2ccc(C(F)(F)F)nc2COCCO)C(=O)C2CCC1C2 (stereo not drawn) | 79 to 81 °C
O=C(C1=C(O)C2CCC(C2)C1=O)c1ccc(C(F)(F)F)nc1COCCOCC(F)(F)F (stereo not drawn) | 40 to 44 °C
O=C(OCCOCc1nc(C(F)(F)F)ccc1C(=O)C1=C(OC(=O)c2ccccc2)C2CCC(C2)C1=O)c1ccccc1 (stereo not drawn) | 96 to 98 °C

Please state melting point for every compound in the list that follows.
1. COCCOCc1nc(C(F)(F)F)ccc1C(=O)C1C(=O)CCC2(CC2)C1=O (stereo not drawn)
2. CC1(C)C(=O)C(C(=O)c2ccc(C(F)(F)F)nc2COCc2ccccc2)C(=O)C(C)(C)C1=O
3. CCCOCCOCc1nc(C(F)(F)F)ccc1C(=O)C1=C(O)C2CCC(C2)C1=O (stereo not drawn)
4. O=C(C1=C(O)C2CCC(C2)C1=O)c1ccc(C(F)(F)F)nc1COCCCOCc1ccccc1 (stereo not drawn)
5. CN(Cc1nc(C(F)(F)F)ccc1C(=O)C1=C(O)C2CCC(C2)C1=O)S(C)(=O)=O (stereo not drawn)
6. O=C(C1=C(O)C2CCC(C2)C1=O)c1ccc(C(F)(F)F)nc1COCc1ccccc1 (stereo not drawn)
7. COCOCc1nc(C(F)(F)F)ccc1C(=O)C1=C(O)C2CCC(C2)C1=O (stereo not drawn)

a:
["40 to 42 °C", "75 to 76 °C", "41 to 43 °C", "78 to 80 °C", "149 to 150 °C", "68 to 69 °C", "95 to 98 °C"]

Provide reported melting point for each item, in the same order as listed.
1. CN(Cc1nc(C(F)(F)F)ccc1C(=O)c1cnn(C)c1O)S(C)(=O)=O
2. COCCOCc1nc(C(F)(F)F)ccc1C(=O)C1=C(O)CC(C)CC1=O (stereo not drawn)
3. COC(=O)COCc1nc(C(F)(F)F)ccc1C(=O)C1=C(O)C2CCC(C2)C1=O (stereo not drawn)

a:
["110 to 112 °C", "76 to 78 °C", "106 to 107 °C"]

State the recorded melting point for every item in the following list.
1. O=C(c1ccc(C(F)(F)F)nc1COCC1CCCO1)C1C(=O)C2CCC(C2)C1=O (stereo not drawn)
2. O=C(C1=C(O)C2CCC(C2)C1=O)c1ccc(C(F)(F)F)nc1COC1COC1 (stereo not drawn)
3. C=CCOCc1nc(C(F)(F)F)ccc1C(=O)C1=C(O)C2CCC(C2)C1=O (stereo not drawn)
4. COCCOCc1nc(C(F)(F)F)ccc1C(=O)C1=C(O)C(C)(C)C(=O)C(C)(C)C1=O
5. CCOCCOCc1nc(C(F)(F)F)ccc1C(=O)c1cnn(C)c1O
6. COc1ccccc1OCc1nc(C(F)(F)F)ccc1C(=O)C1=C(O)C2CCC(C2)C1=O (stereo not drawn)
7. C#CCOCc1nc(C(F)(F)F)ccc1C(=O)C1=C(O)C2CCC(C2)C1=O (stereo not drawn)
8. COCc1nc(C(F)(F)F)ccc1C(=O)c1c(C)nn(C)c1O

a:
46 to 47 °C
102 to 105 °C
53 to 55 °C
99 to 100 °C
38 to 39 °C
113 to 115 °C
71 to 74 °C
138 to 140 °C

q: Query (compound): O=C(c1ccc(C(F)(F)F)nc1COCCCl)C1C(=O)C2CCC(C2)C1=O (stereo not drawn) ; field requested: melting point
a: 63 to 64 °C
